Entries annotated with measured IC50
- TARGET_SYSTEM: human FLT3 protein (FLT3 (WT)) (Homo sapiens)
- Construct: human FLT3 protein (intracellular region, 564 to 993 aa); GST; purchased Carna Biosciences; host or cells: baculovirus expression system
- Sequence (P36888 564-993): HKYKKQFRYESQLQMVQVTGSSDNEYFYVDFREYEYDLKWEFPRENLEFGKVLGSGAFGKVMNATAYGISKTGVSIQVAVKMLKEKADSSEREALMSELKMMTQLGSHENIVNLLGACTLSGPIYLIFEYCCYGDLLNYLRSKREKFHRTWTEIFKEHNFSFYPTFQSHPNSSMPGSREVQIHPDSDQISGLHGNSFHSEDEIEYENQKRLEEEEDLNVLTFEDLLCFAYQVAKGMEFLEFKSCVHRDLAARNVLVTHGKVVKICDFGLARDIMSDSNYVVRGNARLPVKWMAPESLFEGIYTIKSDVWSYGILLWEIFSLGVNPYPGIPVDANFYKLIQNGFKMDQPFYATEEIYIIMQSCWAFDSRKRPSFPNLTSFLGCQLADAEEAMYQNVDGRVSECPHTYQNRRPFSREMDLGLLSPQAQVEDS
- ASSAY_METHOD_TEXT: FLT3 inhibition test (FLT3 enzyme inhibition, time-resolved fluorescence of substrate peptide phosphorylation)
- Format: biochemical
- SETTINGS: GST-fused human FLT3 (564 to 993 aa), ATP 50 μM; read-out: FLT3 (WT) enzyme inhibition activity

Known IC50 results, listed for orientation:
[[record]]
smi = "CNc1nc(Nc2ccc(F)cc2)ncc1C#CCCCNC(=O)CN(C)C(=O)/C=C/CN(C)C"
recorded_endpoint = "IC50"
assay_result = "< 10 nM"

[[record]]
smi = "CCCNc1nc(Nc2cnc(C)c(C)c2)ncc1C#CCCCNC(=O)[C@H](C)N(C)C(=O)/C=C/CN(C)C"
recorded_endpoint = "IC50"
assay_result = "10 to 100 nM"

[[record]]
smi = "CCCNc1nc(Nc2ccc(Cn3ccnn3)cc2)ncc1C#CCCCNC(=O)CN(C)C(=O)/C=C/CN(C)C"
recorded_endpoint = "IC50"
assay_result = "10 to 100 nM"

[[record]]
smi = "CCCNc1nc(Nc2ccnc(F)c2)ncc1C#CC(C)(C)CCNC(=O)[C@H](C)N(C)C(=O)/C=C/CN(C)C"
recorded_endpoint = "IC50"
assay_result = "< 10 nM"


IC50 in this record for CCCNc1nc(Nc2ccc(C#N)cc2)ncc1C#CCCCNC(=O)[C@@H]1CCCN1C(=O)/C=C/CN(C)C : < 10 nM

IC50 in this record for Cc1ccc(Nc2nc(Nc3cccc(F)c3)ncc2C#CCCCNC(=O)[C@H](C)N(C)C(=O)/C=C/CN(C)C)cc1 : < 10 nM

IC50 in this record for CCCNc1nc(Nc2ccc(C#N)cc2)ncc1C#CCCCNC(=O)[C@H]1CCCCN1C(=O)/C=C/CN(C)C : < 10 nM

IC50 in this record for CCCNc1nc(Nc2cccc(C#N)c2)ncc1C#CCCCNC(=O)[C@H](C)N(C)C(=O)/C=C/CN(C)C : < 10 nM

IC50 in this record for CCCNc1nc(Nc2cnc(N3CCOCC3)c(F)c2)ncc1C#CCCCNC(=O)[C@H](C)N(C)C(=O)/C=C/CN(C)C : 10 to 100 nM

IC50 in this record for CCCNc1nc(NCCc2ccncc2)ncc1C(=O)Nc1ccc(C)c(NC(=O)CNC(=O)/C=C/CN(C)C)c1 : < 10 nM

IC50 in this record for COc1ccc(Nc2nc(Nc3cccc(F)c3)ncc2C#CCCCNC(=O)[C@H](C)N(C)C(=O)/C=C/CN(C)C)cn1 : < 10 nM

IC50 in this record for CCCNc1nc(Nc2cccc(F)c2)ncc1C#CCCCNC(=O)[C@@H]1C[C@H](O)CN1C(=O)/C=C/CN(C)C : < 10 nM

IC50 in this record for CCCNc1nc(Nc2ccc(C(F)(F)F)cc2)ncc1C#CCCCNC(=O)[C@H](C)N(C)C(=O)/C=C/CN(C)C : < 10 nM

IC50 in this record for CCOc1nc(Nc2ccc(C#N)cc2)ncc1C#C[C@@H]1CCC[C@H](NC(=O)[C@H](C)N(C)C(=O)/C=C/CN(C)C)C1 : < 10 nM
